SYSTEM_UNDER_TEST: Topoisomerase-I (Homo sapiens, UniProt P11387)
Sequence (P11387 whole entry): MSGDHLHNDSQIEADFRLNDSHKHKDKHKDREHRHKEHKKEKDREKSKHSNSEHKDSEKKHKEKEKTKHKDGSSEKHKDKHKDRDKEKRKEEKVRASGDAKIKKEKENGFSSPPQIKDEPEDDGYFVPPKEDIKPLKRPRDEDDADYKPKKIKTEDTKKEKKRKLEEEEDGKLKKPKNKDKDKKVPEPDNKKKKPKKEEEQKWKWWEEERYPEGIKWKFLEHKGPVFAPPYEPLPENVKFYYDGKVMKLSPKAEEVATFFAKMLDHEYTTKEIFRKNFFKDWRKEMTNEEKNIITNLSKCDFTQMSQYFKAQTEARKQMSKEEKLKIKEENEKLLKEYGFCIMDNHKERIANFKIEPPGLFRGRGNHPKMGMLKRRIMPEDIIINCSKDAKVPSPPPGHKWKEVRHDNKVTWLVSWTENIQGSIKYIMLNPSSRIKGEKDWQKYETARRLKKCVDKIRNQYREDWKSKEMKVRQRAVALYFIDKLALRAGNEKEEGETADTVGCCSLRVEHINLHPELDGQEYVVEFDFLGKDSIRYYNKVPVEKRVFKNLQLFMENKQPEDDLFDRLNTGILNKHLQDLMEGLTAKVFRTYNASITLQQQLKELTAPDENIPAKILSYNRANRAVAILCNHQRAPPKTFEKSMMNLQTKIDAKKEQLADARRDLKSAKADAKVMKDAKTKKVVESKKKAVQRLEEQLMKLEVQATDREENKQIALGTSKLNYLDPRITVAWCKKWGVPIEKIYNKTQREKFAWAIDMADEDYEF
ASSAY_DETAILS: Topoisomerase-I relaxation assay
Assay type: biochemical
CONDITION_NOTES: at 100 μM (FIG. 2)
Experimental: Apart from this, some of these analogues were evaluated for Topoisomerase-I relaxation, Topoisomerase-II inhibition, DNA laddering assay and DNA cell cycle analysis. Compounds 3c, 4c, 3d and 4d were analyzed for topoisomerase-I assay at 100 μM (FIG. 2) only compound 3d was found active and rest were not active. Compounds 3d, 4d and 4c were analyzed for topoisomerase inhibition assay. […]
PROPERTY: activity in topoisomerase-I assay

1. COc1cc([C@@H]2c3cc4c(cc3[C@@H](Nc3ccc5ccc6cccc7ccc3c5c67)[C@@H]3COC(=O)[C@H]23)OCO4)cc(OC)c1O : not active
2. COc1cc([C@@H]2c3cc4c(cc3[C@@H](Nc3ccc5ccc6cccc7ccc3c5c67)[C@@H]3COC(=O)[C@H]23)OCO4)cc(OC)c1OC : not active
3. COc1cc([C@@H]2c3cc4c(cc3[C@@H](Nc3cc5c6ccccc6ccc5c5ccccc35)[C@@H]3COC(=O)[C@H]23)OCO4)cc(OC)c1O : not active

Provenance of the data: patent US8354547B2
